B1: EHEE_rd2_0191 (parent)
chain: TTEYTFTDDEEARRAIEELKKRGLTFRYEKHGTTWRVRVD

Variants of: B1
Measurement Description: folding stability dG (cDNA display proteolysis); higher = more stable
Setup Conditions: PBS, room temperature
Outcome Measure: folding stability dG

Here's what some known entries look like.
1. Y28E = 0.447 kcal/mol
2. T25D = 1.46 kcal/mol
3. T2K = 2.01 kcal/mol

// field: folding stability dG; key: I16W ; value = 0.024 kcal/mol

// field: folding stability dG; key: E11N ; value = 1.56 kcal/mol

// field: folding stability dG; key: E10D ; value = 2.15 kcal/mol

// field: folding stability dG; key: E17M ; value = 2.1 kcal/mol

// field: folding stability dG; key: E11H ; value = 1.77 kcal/mol

// field: folding stability dG; key: E10N ; value = 2.12 kcal/mol

// field: folding stability dG; key: E10S ; value = 1.87 kcal/mol

// field: folding stability dG; key: K20D ; value = 1.15 kcal/mol

// field: folding stability dG; key: T33F ; value = 1.9 kcal/mol

// field: folding stability dG; key: K30N ; value = 0.931 kcal/mol

// field: folding stability dG; key: T33V ; value = 1.71 kcal/mol

// field: folding stability dG; key: E3N ; value = 1.39 kcal/mol

// field: folding stability dG; key: E29W ; value = 3.04 kcal/mol

// field: folding stability dG; key: K30Y ; value = 1.21 kcal/mol

// field: folding stability dG; key: E11A ; value = 2.16 kcal/mol

// field: folding stability dG; key: R14T ; value = 1.73 kcal/mol
